Below, each of the molecules is paired with its reported Ratio value.
test system: Streptococcus pyogenes; assay: Ratio of MBC to MIC for inducibly erythromycin resistant Streptococcus pyogenes 01-968 expressing i-ermA; format: functional

Use these answered entries as a reference point.
CC[C@H]1OC(=O)[C@H](C)[C@@H](OC(=O)CCNC/C=C/c2cccnc2)[C@H](C)[C@@H](O[C@@H]2O[C@H](C)C[C@H](N(C)C)[C@H]2O)[C@](C)(OC)C[C@@H](C)/C(=N\OC)[C@H](C)[C@H]2OC(=O)O[C@@]21C :: >8
C#CCNCCC(=O)O[C@H]1[C@H](C)[C@@H](O[C@@H]2O[C@H](C)C[C@H](N(C)C)[C@H]2O)[C@](C)(OC)C[C@@H](C)/C(=N\OC)[C@H](C)[C@H]2OC(=O)O[C@]2(C)[C@@H](CC)OC(=O)[C@@H]1C :: >8
CC[C@H]1OC(=O)[C@H](C)[C@@H](O[C@H]2C[C@@](C)(OC)[C@@H](O)[C@H](C)O2)[C@H](C)[C@@H](O[C@@H]2O[C@H](C)C[C@H](N(C)C)[C@H]2O)[C@](C)(OC)C[C@@H](C)C(=O)[C@H](C)[C@@H](O)[C@]1(C)O :: >8

Please look at the following molecule next.
Query CC[C@H]1OC(=O)[C@H](C)[C@@H](OC(=O)CCNCCCc2cccnc2)[C@H](C)[C@@H](O[C@@H]2O[C@H](C)C[C@H](N(C)C)[C@H]2O)[C@](C)(OC)C[C@@H](C)/C(=N\OC)[C@H](C)[C@H]2OC(=O)O[C@@]21C yields Ratio of >8
